Origin of values: a protein production outcome set (Wang et al. 2014)

- Experiment Notes: label from the status in PepcDB records
Value Type: protein production

INSERT INTO results (seq, value_type, test_result) VALUES
  ('MPILTISGSPSAPSRSARLLGHVRAQLERAGESADHLDLRALPADALLGAQTAHPAIAEALARVAAAGVVILATPVYQAAYSGLLKTFLDLLPQSGLRDKVVLPIATGGSLAHTLAIDYALRPVLSSLAARVILPGIFAADAQIGAADDGFAVDPALQQRLDDGIERVHQAIALARHPAVAQVIVASRRTVRSAFQAHANAQATDAQQRMRCPA', 'protein production', 'failed'),
  ('DLEVHGDKDDAELLIIGWGGTYGHLYETMERMRNAGKKVALAHFRFINPLPKNTAEVLQRYPKAVVAEQNLGQFALYLRGEVPGFHPLQFNRVTGQPLVMSEMVEVFTQMMEEK', 'protein production', 'failed'),
  ('MAGGLGKCSKIRHIVRLRQMLRRWRDQARMSSSFSRCVPSDVPSGHVAVYVGSSCRRFVVRATYLNHPVLRNLLVQAEEEFGFVNQGPLVIPCEESVFEESIRFISRSDSTRSRRFTCPDDFQKNCHVVGIRSKLDLWIESRPLLHGVTEKAVW', 'protein production', 'failed');
